assay: Free energy of hydration by COSMO-RS
Category | rule: reported COSMO-RS error within range, see 1 (below 0.1 kcal/mol), 2 (0.1 kcal/mol to below 0.3 kcal/mol), 3 (0.3 kcal/mol or more)

C1CC1 [Cyclopropane] = 3
CN(C)C [trimethylamine] = 3

Field: class (COSMO-RS error) — entry: CCCCC(C)=O [hexa2none]
2

Entry CC(=O)O [AceticAcid] belongs to which category?
2

Which category fits this record: CC(N)=O [Acetamide]
3

====

test: CHEX/H2O partition coefficient (log D) predicted with the QM-parameterized force field model (ARROW FF); details: Table 4; error of MD logD vs experiment
MEASURED PARAMETER: logD Arrow MD Error
Form: value (number only, do not type unit).

Worked set:
CS = 0.29
CCCC = 0.18
CCC(N)=O [propionamide] = 0.54

Now look at this one.
Requested field: logD Arrow MD Error. Item: Cc1c[nH]cn1
0.05

====

experiment: Free energy of hydration by Polarizable Continuum Model (PCM); conditions: absolute error vs Exp (hydration)
Label N if PCM Error falls below 2 kcal/mol; label Y in every other case.

Answered examples (4):
CCCCCC = Y
CNC = Y
CC(C)O = N
CCCC(C)=O = N

Identify whether the reported PCM Error of the following compound is 2 kcal/mol or greater: CO
N

Given the entry CC=O , answer whether its PCM Error meets or surpasses 2 kcal/mol.
N

Test whether the compound CCC(=O)O records PCM Error of 2 kcal/mol or higher.
Y

Please indicate if the recorded PCM Error for CC(C)=O meets or exceeds 2 kcal/mol.
N

====

assay: Free energy of hydration predicted with the QM-parameterized force field model (ARROW FF), classical MD and PIMD simulation in a water box; details: Table 4; error of PIMD8 hydration free energy vs experiment
MEASURED PARAMETER: water Arrow PIMD8 Error
Number first, unit second: that is the form wanted.

Some molecules with recorded water Arrow PIMD8 Error:
CCSC [EthylMethylSulfide] = 0.11 kcal/mol
CC(C)C [Isobutane] = 0.02 kcal/mol
Cc1ccccc1 [Toluene] = 0.10 kcal/mol

For the molecule Cc1c[nH]cn1 [Methylimidazole (His)] , what water Arrow PIMD8 Error is on record?
0.03 kcal/mol

Need water Arrow PIMD8 Error, item CCC(N)=O [propionamide]
0.17 kcal/mol

Recorded water Arrow PIMD8 Error of CCCCN [butanamine] , please.
0.28 kcal/mol

Item under review: Cc1c[nH]c2ccccc12 [3-methyl-indole] . Reported water Arrow PIMD8 Error?
1.02 kcal/mol

Param item = CCC [Propane] ; retrieve measured water Arrow PIMD8 Error.
0.00 kcal/mol

Form field: reported water Arrow PIMD8 Error of CC(N)=O [Acetamide]
0.06 kcal/mol

====

Each entry below carries its reported CHEX Arrow MD Error.
test: Free energy of solvation in cyclohexane predicted with the QM-parameterized force field model (ARROW FF), MD and PIMD; details: Table 4; error of MD cyclohexane solvation free energy vs experiment
Report as: number unit

CCC [Propane] = 0.23 kcal/mol

Now for another entry.
Recorded CHEX Arrow MD Error of Cc1c[nH]c2ccccc12 [3-methyl-indole] , please.
0.24 kcal/mol

====

assay: CHEX/H2O partition coefficient (log D) predicted with the QM-parameterized force field model (ARROW FF); conditions: Table 3; absolute error of MD log D vs experiment
Measured log D Arrow MD Error of individual entries
Lab note: jot the number down without any unit.

Guide cases for log D Arrow MD Error, answers given:
Cc1ccccc1O = 0.67
Nc1ccccc1 = 0.18
c1ccc2ccccc2c1 = 0.19

Lab note: next compound to report on.
# query: log D Arrow MD Error of entry Oc1ccccc1
0.65
